Where do these numbers come from? They come from patent US20220324865A1.

Biological target: human EP3 receptor (Homo sapiens)
Sequence (P43115 whole entry): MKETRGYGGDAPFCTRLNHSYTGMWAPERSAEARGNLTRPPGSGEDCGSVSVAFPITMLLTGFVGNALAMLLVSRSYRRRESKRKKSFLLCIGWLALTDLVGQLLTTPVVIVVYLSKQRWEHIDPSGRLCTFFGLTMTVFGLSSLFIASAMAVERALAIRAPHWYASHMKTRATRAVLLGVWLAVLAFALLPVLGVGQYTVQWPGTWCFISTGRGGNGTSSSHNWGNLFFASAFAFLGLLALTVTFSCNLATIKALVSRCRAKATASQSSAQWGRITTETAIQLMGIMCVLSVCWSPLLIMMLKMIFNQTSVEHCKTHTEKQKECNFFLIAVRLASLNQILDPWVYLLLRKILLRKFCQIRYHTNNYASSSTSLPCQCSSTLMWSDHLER
Test: Cellular in vitro assay for determining EP3 receptor activity (human EP3 cell line, sulprostone-stimulated calcium luminescence)
Details: CHO cells expressing human EP3 and mitochondrial Clytin; antagonist mode, sulprostone at EC50; read-out: EP3 CHO mtCLY ANTAG IC50
Procedure: B-1. Cellular In Vitro Assay for Determining EP3 Receptor Activity The identification of antagonists of the EP3 receptor from humans and rats as well as the quantification of the activity of the compounds of the invention was carried out using recombinant cell lines. […] Antagonists inhibit the receptor signaling, leading to reduced calcium release and luminescence. The bioluminescence of the cell lines is detected using a suitable luminometer (Trends Pharmacol. Sci. 1996, 17, 235-237). […]
reported property: log10(IC50) (log10 of the value in nM)
In plain terms, each number is the log10 of measured IC50 in nM.

Req: Enter reported log10(IC50) observed with human EP3 receptor (Homo sapiens) for `Cc1cccc2ncc(-c3cn4nc(C(=O)NCCn5ccc(C6CC6)n5)c(C(C)C)c4c(=O)[nH]3)cc12`
Resp: -0.07

Req: Request - read-out log10(IC50) | tested on human EP3 receptor (Homo sapiens) | molecule `COC[C@H](C)NC(=O)c1nn2cc(-c3ccc4ccccc4c3)[nH]c(=O)c2c1C(F)(F)F`
Resp: 0.48

Req: For human EP3 receptor (Homo sapiens), provide log10(IC50) of CCN1CCC(NC(=O)c2nn3cc(-c4ccc(Cl)c(C)c4)[nH]c(=O)c3c2C2CC2)(C(F)(F)F)C1 (single isomer, unassigned) [6-294] please.
Resp: 1.00

Req: Under human EP3 receptor (Homo sapiens): log10(IC50) value of `Cc1ccc(-c2cn3nc(C(=O)N[C@@H](C)C4CC4)c(C(F)(F)F)c3c(=O)[nH]2)cc1Cl` ?
Resp: 0.02

Req: So what log10(IC50) did `O=C(N[C@@H](c1ccc(F)cc1)C(F)(F)CO)c1nn2cc(-c3ccc(Cl)c(Cl)c3)[nH]c(=O)c2c1C1CCC1` get with human EP3 receptor (Homo sapiens)?
Resp: 0.40

Req: Short answer please: log10(IC50), human EP3 receptor (Homo sapiens), entry `Cc1c(C(=O)NC2(c3ccccc3)CCOCC2)nn2c(C)c(-c3ccc4ccccc4c3)[nH]c(=O)c12`
Resp: 0.78

Req: Form field - read-out: log10(IC50); system: human EP3 receptor (Homo sapiens); submitted item: CCN(CCO)CC(NC(=O)c1nn2cc(-c3cnc4cccc(C)c4c3)[nH]c(=O)c2c1C(C)C)c1ccccc1 (stereo not shown)
Resp: 0.57

---

target: human EP3 receptor (Homo sapiens); experiment: Cellular in vitro assay for determining EP3 receptor activity (human EP3 cell line, sulprostone-stimulated calcium luminescence); settings: CHO cells expressing human EP3 and mitochondrial Clytin; antagonist mode, sulprostone at EC50; read-out: EP3 CHO mtCLY ANTAG IC50
reported property: IC50 (nM)
Field format: number, assumed nM, no unit text.

Req: Consider the compound Cc1cc(-c2cn3nc(C(=O)NCC(O)C(F)(F)F)c(C4CC4)c3c(=O)[nH]2)ccc1F (single isomer, unassigned) and give its measured IC50.
Resp: 9.35

Req: Bench note: what IC50 did CCc1ccc(C(C)NC(=O)c2nn3cc(-c4cnc5cccc(C)c5c4)[nH]c(=O)c3c2C(C)C)cc1 (stereo not drawn) show?
Resp: 3.7

Req: Return reported IC50; argument: `O=C(NCCc1ccccc1)c1cc2c(=O)[nH]c(-c3ccc4ccccc4c3)cn2n1`
Resp: 8.25

Req: Which measured IC50 value corresponds to `Cc1cc(-c2cn3nc(C(=O)NC4(c5ccc(F)cc5)CN(C)C4)c(C4CC4)c3c(=O)[nH]2)ccc1Cl` ?
Resp: 4

Req: Can you share its IC50? I mean this compound: Cc1cccc2ncc(-c3cn4nc(C(=O)NC5CCOc6ccccc65)c(C(C)C)c4c(=O)[nH]3)cc12 (stereo not drawn)
Resp: 1.15

Req: # query: IC50 of entry `Cc1cc(-c2cn3nc(C(=O)N[C@@H](C)C4CC4)c(C(C)C)c3c(=O)[nH]2)ccc1Cl`
Resp: 1.9

Req: Any idea what its IC50 is? The compound is `Cc1ccc([C@@H](C)NC(=O)c2nn3cc(-c4cnc5cccc(C)c5c4)[nH]c(=O)c3c2C(C)C)cc1`
Resp: 2.75

Req: Consider the compound shown here: Cc1nn(C)cc1C(C)NC(=O)c1cc2c(=O)[nH]c(-c3ccc4ccccc4c3)cn2n1 (stereo not drawn) What is its recorded IC50?
Resp: 4

Req: # query: IC50 of entry `CCn1nccc1CNC(=O)c1nn2cc(-c3cnc4cccc(C)c4c3)[nH]c(=O)c2c1C(C)C`
Resp: 0.5

Req: Quick check: IC50 of O=C(NC(CO)c1ccc(F)cc1)c1cc2c(=O)[nH]c(-c3ccc4cccnc4c3)cn2n1 (stereo not drawn) ?
Resp: 2.15

Req: IC50 for `Cc1c(C(=O)NCc2ccccn2)nn2c(C)c(-c3ccc4ccccc4c3)[nH]c(=O)c12` ?
Resp: 5.45

Req: Quick one: IC50 for `O=C(NC1(c2ccc(F)cc2)CN(CC(F)(F)F)C1)c1nn2cc(-c3ccc(Cl)c(F)c3)[nH]c(=O)c2c1C1CC1` ?
Resp: 0.74

Req: Name the reported IC50 value associated with the compound CC(NC(=O)c1nn2cc(-c3ccc4ccccc4c3)[nH]c(=O)c2c1C#N)c1cccc(Br)c1 (stereo not drawn)
Resp: 5.45

Req: Field request: IC50 | item: `CC(C)(O)[C@@H](NC(=O)c1nn2cc(-c3ccc(C(F)(F)F)c(F)c3F)[nH]c(=O)c2c1C1CC1)c1ccc(F)cc1`
Resp: 5.65

Req: Find the recorded IC50 belonging to `CN1CC(NC(=O)c2nn3cc(-c4ccc5ccccc5c4)[nH]c(=O)c3c2C2CC2)(c2ccc(F)cc2)C1` and report it.
Resp: 4.6
